method.summary: In vitro stability (half-life) in human plasma
Type: in vitro ADME
experimental.parameters: male, pH 7.4, human plasma pH 7.4, anticoagulant, 37° C., read-out: T1/2 (minutes) Human
property: half-life at 5 μM

Here's what some known entries look like.
# compound, property, result
measured = [
    ("Cc1ccc(S(=O)(=O)NO)o1 [Compound (1), N-Hydroxy-5-methylfuran-2-sulfonamide]", "half-life at 5 μM", "~65 min"),
    ("CS(=O)(=O)c1ccccc1S(=O)(=O)NO", "half-life at 5 μM", "2 min"),
]

Next up:
Indicate its recorded half-life at 5 μM; the compound in question is CS(=O)(=O)c1cccc(S(=O)(=O)NO)c1
~37 min

----------
method.summary: Solubility by visual assessment in pH 4 buffer
Format: physicochemical
experimental.parameters: pH 4 citrate buffer, pH 4, aqueous buffer, thermodynamic from solid, 100 μg/mL, shaken 5 minutes, read-out: Solubility (100 μg/mL)
# solubility at 5 min values compiled below

# molecule, property, result
data = [
    ("CS(=O)(=O)c1cccc(S(=O)(=O)NO)c1 [(2)]", "solubility at 5 min", "> 0.1 mg/mL"),
]

Next up:
Indicate its recorded solubility at 5 min; the molecule in question is Cc1ccc(S(=O)(=O)NO)o1 [Compound (1), N-Hydroxy-5-methylfuran-2-sulfonamide]
> 0.1 mg/mL

----------
method.summary: Solubility in water in the absence of excipients
Assay type: physicochemical
experimental.parameters: thermodynamic from solid; water, no excipients; read-out: equilibrium solubility in water
property: solubility thermodynamic

# compound, result
data = [
    ("Cc1ccc(S(=O)(=O)NO)o1 [Compound (1), N-Hydroxy-5-methylfuran-2-sulfonamide]", "> 100000 µg/mL"),
]

Next up:
Indicate its recorded solubility thermodynamic; the compound in question is CS(=O)(=O)c1cccc(S(=O)(=O)NO)c1 [(2)]
~10000 µg/mL

----------
method.summary: Solubility in water in the absence of excipients
Format: physicochemical
experimental.parameters: water without excipients, pH 2.8, thermodynamic from solid; water, no excipients, not accounting for the volume contribution of the compound; read-out: concentration achieved in water
property: solubility

Indicate its recorded solubility; the compound in question is Cc1ccc(S(=O)(=O)NO)o1 [Compound (1), N-Hydroxy-5-methylfuran-2-sulfonamide]
≥ 300 mg/mL

----------
method.summary: In vitro stability (half-life) in rat plasma
Assay type: in vitro ADME
experimental.parameters: male, rat plasma pH 7.4, anticoagulant, 37° C., read-out: T1/2 (minutes) Rat
# half-life at 5 μM values compiled below
Write down the numeric answer in min and omit the unit.

# compound, half-life at 5 μM [min]
records = [
    ("Cc1ccc(S(=O)(=O)NO)o1 [Compound (1), N-Hydroxy-5-methylfuran-2-sulfonamide]", 40),
]

Next up:
Indicate its recorded half-life at 5 μM; the compound in question is CS(=O)(=O)c1cccc(S(=O)(=O)NO)c1
20

----------
method.summary: In vitro stability (half-life) in PBS pH 7.4
Type: physicochemical
experimental.parameters: pH 7.4, aerated PBS pH 7.4, 37° C., read-out: T1/2 (minutes) PBS
property: half-life at 5 μM

Here's what some known entries look like.
# compound, half-life at 5 μM
data = [
    ("CS(=O)(=O)c1cccc(S(=O)(=O)NO)c1", "~50 min"),
    ("CS(=O)(=O)c1ccccc1S(=O)(=O)NO", "2 min"),
]

Next up:
Indicate its recorded half-life at 5 μM; the compound in question is Cc1ccc(S(=O)(=O)NO)o1 [Compound (1), N-Hydroxy-5-methylfuran-2-sulfonamide]
~68 min
